Exercise: for every item that follows, state its recorded AB-3167 (MIC).
Tested on: Acinetobacter baumanii/haemolyticus: Multidrug-resistant clinical isolate (AB-3167)
Experiment: MIC determination (CLSI), strain AB-3167
Format: cell-based
Settings: unit assumed

Tell me AB-3167 (MIC) reported for CC(CCn1ccc(-c2ccc(OCCc3ccncc3)cc2)cc1=O)(C(=O)NO)S(C)(=O)=O (stereo not drawn) > 64 µg/mL

Please list AB-3167 (MIC) recorded for the compound C[C@@](CCn1ccc(-c2ccc([C@H]3C[C@@H](O)C3)cc2)cc1=O)(C(=O)NO)S(C)(=O)=O > 64 µg/mL

Give reported AB-3167 (MIC) value for C[C@@](CCn1ccc(-c2ccc(OC3CCC(O)CC3)cc2)cc1=O)(C(=O)NO)S(C)(=O)=O (stereo partly drawn) 64 µg/mL

Quickly give me recorded AB-3167 (MIC) for CC(CCn1ccc(-c2ccc(OCCCO)cc2)cc1=O)(C(=O)NO)S(C)(=O)=O (stereo not drawn) > 64 µg/mL

Identify measured AB-3167 (MIC) associated with CC(CCn1ccc(-c2cc3ccccc3o2)cc1=O)(C(=O)NO)S(C)(=O)=O (racemic) > 64 µg/mL

Answer with the recorded AB-3167 (MIC) for the compound listed here: CC(CCn1ccc(OCCC2CCCC2)cc1=O)(C(=O)NO)S(C)(=O)=O (stereo not drawn) 64 µg/mL

Please look at this compound and report its AB-3167 (MIC): C[C@@](CCn1ccc(-c2ccc(-c3ncccn3)cc2)cc1=O)(C(=O)NO)S(C)(=O)=O > 64 µg/mL

State its AB-3167 (MIC): C[C@@](CCn1ccc(C#Cc2ccccc2)cc1=O)(C(=O)NO)S(C)(=O)=O 64 µg/mL

Could you please provide reported AB-3167 (MIC) for Cc1cnc(-c2ccc(-c3ccn(CC[C@](C)(C(=O)NO)S(C)(=O)=O)c(=O)c3)cc2)o1 ? Thanks! > 64 µg/mL
